Species: Rattus norvegicus
Assay: Open TG-GATES - Regimen: Daily Repeat
Format: toxicity, organism-based, Sprague-Dawley
Parameters: regimen Daily Repeat, gender Male, age 6 weeks
Details: in vivo, po, 0 mg/kg, 72 h, tissue Blood, route gavage, dose level Control, time 3 day
Endpoint: Plat (x10_4/uL)
Numbers only, in x10_4/uL.

# return Plat for each item in the list
1. CCO [ALCOHOL]
2. CC(S)C(=O)NCC(=O)O (stereo not drawn) [TIOPRONIN]
3. Nc1ccc(Cc2ccc(N)cc2)cc1

[112.5, 112.4, 134]

* * *

Organism: Rattus norvegicus
Test: Open TG-GATES - Regimen: Daily Repeat
Format: toxicity, organism-based, Sprague-Dawley
Design: regimen Daily Repeat, gender Male, age 6 weeks
Conditions: in vivo, po, 0 mg/kg, […], tissue Blood, route gavage, dose level Control, time 7 day
Endpoint: Fbg
Quote the value and follow it with the unit of measurement.

Worked examples, 5 compounds total:
| Compound | Fbg |
| --- | --- |
| CN(C/C=C/C#CC(C)(C)C)Cc1cccc2ccccc12 [TERBINAFINE] | 236 mg/dL |
| CCN(CC)C(=S)SSC(=S)N(CC)CC | 315 mg/dL |
| O=c1ccc2ccccc2o1 [COUMARIN] | 218.4 mg/dL |
| CC(=O)[C@@]1(O)CC[C@H]2[C@@H]3C=C(Cl)C4=CC(=O)CC[C@]4(C)[C@H]3CC[C@@]21C [CHLORMADINONE] | 337 mg/dL |
| O=C(O)c1ccccc1Nc1ccccc1 [FENAMIC ACID] | 278.2 mg/dL |

# return Fbg for each item in the list
1. NS(=O)(=O)c1cc(C(=O)O)c(NCc2ccco2)cc1Cl [FUROSEMIDE]
2. Nc1ccc(Cc2ccc(N)cc2)cc1
3. COc1ccc([C@@H]2Sc3ccccc3N(CCN(C)C)C(=O)[C@@H]2OC(C)=O)cc1 [DILTIAZEM]
4. CN(CCOc1ccc(CC2SC(=O)NC2=O)cc1)c1ccccn1.O=C(O)/C=C\C(=O)O (stereo not drawn) [ROSIGLITAZONE MALEATE]
5. CCO [ALCOHOL]
6. CCCCC1C(=O)N(c2ccccc2)N(c2ccccc2)C1=O [PHENYLBUTAZONE]
7. CCCCNC(=O)NS(=O)(=O)c1ccc(C)cc1 [TOLBUTAMIDE]
8. CC(S)C(=O)NCC(=O)O (stereo not drawn) [TIOPRONIN]

["294.2 mg/dL", "277.4 mg/dL", "297.6 mg/dL", "242.4 mg/dL", "212.6 mg/dL", "242.2 mg/dL", "274.8 mg/dL", "311.2 mg/dL"]

* * *

Species on record: Rattus norvegicus
Experiment: Open TG-GATES - Regimen: Daily Repeat
Type: toxicity, organism-based, Sprague-Dawley
Set-up: regimen Daily Repeat, gender Male, age 6 weeks
Settings: in vivo, po, 300 mg/kg, 72 h, tissue Plasma, route gavage, dose level Middle, time 3 day
Endpoint: TG (mg/dL)
Numbers only, in mg/dL.

Worked examples, 3 molecules total:
| Molecule | Endpoint | Endpoint value |
| --- | --- | --- |
| O=C(O)c1ccccc1Nc1ccccc1 | TG | 99.4 |
| CC(S)C(=O)NCC(=O)O (centres undefined) | TG | 71.2 |
| CC(=O)[C@@]1(O)CC[C@H]2[C@@H]3C=C(Cl)C4=CC(=O)CC[C@]4(C)[C@H]3CC[C@@]21C | TG | 181.4 |

Pending molecule:
Give a short answer stating reported TG for CCCCNC(=O)NS(=O)(=O)c1ccc(C)cc1 [TOLBUTAMIDE] .
86.4
